Overview of reported viscosity across a group of compounds:
conditions: 308.15 K; 101 kPa; Liquid; Concentric cylinders viscometry
± gives the expanded uncertainty stated by the source.
Measurement kind: viscosity

Compound	Measurement kind	Result
OCC(O)CO [glycerol]	viscosity	406.93 ± 12 mPa·s
c1ccncc1 [pyridine]	viscosity	0.7837 ± 0.0084 mPa·s
CC(O)CO (stereo not given) [1,2-propanediol]	viscosity	25.16 ± 0.12 mPa·s
CCCO [propan-1-ol]	viscosity	1.542 ± 0.01 mPa·s
OCCCO [propan-1,3-diol]	viscosity	26.58 ± 0.28 mPa·s

---

settings: 313.15 K; 101 kPa; Liquid; Concentric cylinders viscometry
Hi! Just check whether viscosity is below 20 mPa·s. Below gives Condition met, equal or above gives Condition not met.

Molecule	Assigned category
OCC(O)CO [glycerol]	Condition not met
OCCCO [propan-1,3-diol]	Condition not met
CCCO [propan-1-ol]	Condition met
c1ccncc1 [pyridine]	Condition met

---

details: 318.15 K; 101 kPa; Liquid; Concentric cylinders viscometry
Measurement kind: log10 viscosity (log10 of the value in mPa·s)

Compound	log10 viscosity
CCCO	0.09
CC(O)CO (stereo not given)	1.19
OCC(O)CO	2.30
c1ccncc1	-0.16
OCCCO	1.25

---

details: 303.15 K; 101 kPa; Liquid; Concentric cylinders viscometry

Compound	viscosity, mPa·s
OCC(O)CO	600.83
c1ccncc1	0.8355
CCCO	1.727
OCCCO	32.84
CC(O)CO (stereo not given)	32.75

---

conditions: 298.15 K; 101 kPa; Liquid; Concentric cylinders viscometry
In this section, each of the compounds is paired with its reported viscosity.

Compound	viscosity [mPa·s]
OCC(O)CO [glycerol]	911.98
CCCO [propan-1-ol]	1.95
CC(O)CO (stereo not given) [1,2-propanediol]	43.44
c1ccncc1 [pyridine]	0.8943
OCCCO [propan-1,3-diol]	41.04

---

settings: 293.15 K; 101 kPa; Liquid; Concentric cylinders viscometry
Catalogue of viscosity values

Compound	Measure unit	viscosity
CCCO	mPa·s	2.208
OCC(O)CO	mPa·s	1425.1
CC(O)CO (stereo not given)	mPa·s	58.75
OCCCO	mPa·s	51.91
c1ccncc1	mPa·s	0.9588

---

experiment: refractive index (Na D-line) (dimensionless); details: 288.15 K; 101.33 kPa; Liquid; Standard Abbe refractometry
Below, each entry is listed with its recorded refractive index.

Compound	refractive index
CCCO	1.3878
CC(O)CO (stereo not given)	1.43411
OCCCO	1.44089
OCC(O)CO	1.47552
c1ccncc1	1.51184

---

test: refractive index (Na D-line) (dimensionless); settings: 298.15 K; 101.33 kPa; Liquid; Standard Abbe refractometry

Molecule	refractive index
CC(O)CO (stereo not given)	1.43081
CCCO	1.38369
OCCCO	1.43805
c1ccncc1	1.50616
OCC(O)CO	1.47301

---

// log10 of viscosity lookup, one value per entry
details: 323.15 K; 101 kPa; Liquid; Concentric cylinders viscometry
Measurement kind: log10 of viscosity (log10 of the value in mPa·s)

Compound	log10 of viscosity
c1ccncc1 [pyridine]	-0.19
OCCCO [propan-1,3-diol]	1.17
OCC(O)CO [glycerol]	2.17
CC(O)CO (stereo not given) [1,2-propanediol]	1.10
CCCO [propan-1-ol]	0.05

---

settings: 288.15 K; 101 kPa; Liquid; Concentric cylinders viscometry
Measurement kind: log10 viscosity (log10 of the value in mPa·s)

Compound	Measurement kind	Quantitative readout
c1ccncc1 [pyridine]	log10 viscosity	0.01
CCCO [propan-1-ol]	log10 viscosity	0.40
OCCCO [propan-1,3-diol]	log10 viscosity	1.82
CC(O)CO (stereo not given) [1,2-propanediol]	log10 viscosity	1.91
OCC(O)CO [glycerol]	log10 viscosity	3.36

---

test: refractive index (Na D-line) (dimensionless); conditions: 303.15 K; 101.33 kPa; Liquid; Standard Abbe refractometry
Measurement kind: refractive index

Molecule	Measurement kind	Quantitative readout
CC(O)CO (stereo not given)	refractive index	1.42915
CCCO	refractive index	1.38162
c1ccncc1	refractive index	1.50331
OCCCO	refractive index	1.43665
OCC(O)CO	refractive index	1.47175

---

conditions: 323.15 K; 101 kPa; Liquid; Vibrating tube method
Numbers after ± are expanded uncertainties.
Measurement kind: mass density

Compound	Measurement kind	Result
c1ccncc1	mass density	952.673 ± 0.12 kg/m3
CC(O)CO (stereo not given)	mass density	1013.86 ± 0.13 kg/m3
OCCCO	mass density	1034.12 ± 0.91 kg/m3
OCC(O)CO	mass density	1242.08 ± 0.21 kg/m3
CCCO	mass density	779.334 ± 0.15 kg/m3

---

details: 318.15 K; 101 kPa; Liquid; Vibrating tube method
Examples of compounds with documented mass density follow.

Compound	Measure unit	mass density
CC(O)CO (stereo not given)	kg/m3	1017.73
CCCO	kg/m3	783.553
c1ccncc1	kg/m3	957.769
OCCCO	kg/m3	1037.31
OCC(O)CO	kg/m3	1245.24

---

assay: refractive index (Na D-line) (dimensionless); conditions: 313.15 K; 101.33 kPa; Liquid; Standard Abbe refractometry
refractive index: recorded values

Molecule	refractive index
CCCO [propan-1-ol]	1.37695
OCCCO [propan-1,3-diol]	1.43387
CC(O)CO (stereo not given) [1,2-propanediol]	1.42581
c1ccncc1 [pyridine]	1.49769
OCC(O)CO [glycerol]	1.4692

---

test: refractive index (Na D-line) (dimensionless); conditions: 293.15 K; 101.33 kPa; Liquid; Standard Abbe refractometry

Compound	refractive index
CCCO [propan-1-ol]	1.38576
c1ccncc1 [pyridine]	1.509
OCC(O)CO [glycerol]	1.47427
CC(O)CO (stereo not given) [1,2-propanediol]	1.43247
OCCCO [propan-1,3-diol]	1.43947

---

settings: 293.15 K; 101 kPa; Liquid; Vibrating tube method
Tick yes (1) if mass density is 1000 kg/m3 or greater. Tick no (0) if mass density is less than 1000 kg/m3.

Compound	Assigned category
CC(O)CO (stereo not given)	yes (1)
OCCCO	yes (1)
OCC(O)CO	yes (1)
CCCO	no (0)

---

test: refractive index (Na D-line) (dimensionless); conditions: 318.15 K; 101.33 kPa; Liquid; Standard Abbe refractometry
Catalogue of refractive index readings, one per entry.

Molecule	refractive index
CC(O)CO (stereo not given)	1.42407
OCCCO	1.43244
OCC(O)CO	1.46791
c1ccncc1	1.49493
CCCO	1.37469

---

Quick reference: mass density of the listed items.
conditions: 313.15 K; 101 kPa; Liquid; Vibrating tube method
± gives the expanded uncertainty stated by the source.

Compound	mass density
CC(O)CO (stereo not given)	1021.55 ± 0.13 kg/m3
OCC(O)CO	1248.48 ± 0.21 kg/m3
OCCCO	1040.49 ± 0.92 kg/m3
CCCO	787.721 ± 0.15 kg/m3
c1ccncc1	962.849 ± 0.12 kg/m3
